assay_procedure: total protein half-life in vivo (active degradation + dilution); higher = more stable protein
stated_conditions: E. coli NCM3722 delta-clpP delta-lon delta-hslV; growth: N-lim chemostat; doubling time 6 h
experimental_readout: total protein half-life in vivo
# include the unit after the value

q: Give the reported value of total protein half-life in vivo for this record: MSTLEPAAQSKPPGGFKLWLSQLQMKHGRKLVIALPYIWLILLFLLPFLIVFKISLAEMARAIPPYTELMEWADGQLSITLNLGNFLQLTDDPLYFDAYLQSLQVAAISTFCCLLIGYPLAWAVAHSKPSTRNILLLLVILPSWTSFLIRVYAWMGILKNNGVLNNFLLWLGVIDQPLTILHTNLAVYIGIVYAYVPFMVLPIYTALIRIDYSLVEAALDLGARPLKTFFTVIVPLTKGGIIAGSMLVFIPAVGEFVIPELLGGPDSIMIGRVLWQEFFNNRDWPVASAVAIIMLLLLIVPIMWFHKHQQKSVGEHG
a: 6.86 h

Others:
q: Provide measured total protein half-life in vivo value, entry: MRYHGDMLLTTPVISTLKQNYPDAKIDMLLYQDTIPILSENPEINALYGISNKGAGTFDKIKNVLSLIKTLRANNYDLVINLTDQWMVALLVRCLPARMKISQLYGHRQHGIWKKSFTHLAPIHGTHIVERNLSVLEPLGITDFYTDTTMSYAEDCWKKMRRELDALGVKDHYVVIQPTARQIFKCWDNDKFSKVIDALQQRGYQVVLTCGPSADDLACVDEIARGCETKPITGLAGKTRFPELGALIDHAVLFIGVDSAPGHIAAAVKTPVISLFGATDHVFWRPWTENIIQFWAGNYQKMPTRHELDRNKKYLSVIPAEDVIAATEKLLPEDAPSADRNAQL
a: 6.09 h

q: Identify the reported total protein half-life in vivo for the following entry. MMDNMQTEAQPTRTRILNAAREIFSENGFHSASMKAICKSCAISPGTLYHHFISKEALIQAIILQDQERALARFREPIEGIHFVDYMVESIVSLTHEAFGQRALVVEIMAEGMRNPQVAAMLKNKHMTITEFVAQRMRDAQQKGEISPDINTAMTSRLLLDLTYGVLADIEAEDLAREASFAQGLRAMIGGILTAS [P0ACT6]
a: 6.37 h

q: Look up total protein half-life in vivo of MTIWVDADACPNVIKEILYRAAERMQMPLVLVANQSLRVPPSRFIRTLRVAAGFDVADNEIVRQCEAGDLVITADIPLAAEAIEKGAAALNPRGERYTPATIRERLTMRDFMDTLRASGIQTGGPDSLSQRDRQAFAAELEKWWLEVQRSRG [P0A8D3] and report it.
a: 3.56 h

q: Answer with the recorded total protein half-life in vivo of MKKVAIVGLGWLGMPLAMSLSARGWQVTGSKTTQDGVEAARMSGIDSYLLRMEPELVCDSDDLDALMDADALVITLPARRSGPGDEFYLQAVQELVDSALAHRIPRIIFTSSTSVYGDAQGTVKETTPRNPVTNSGRVLEELEDWLHNLPGTSVDILRLAGLVGPGRHPGRFFAGKTAPDGEHGVNLVHLEDVIGAITLLLQAPKGGHIYNICAPAHPARNVFYPQMARLLGLEPPQFRNSLDSGKGKIIDGSRICNELGFEYQYPDPLVMPLE [P0AD12] only.
a: 4.79 h

q: Answer with the recorded total protein half-life in vivo of MEISFTRVALLAAALFFVGCDQKPQPAKTHATEVTVLEGKTMGTFWRASIPGIDAKRSAELKEKIQTQLDADDQLLSTYKKDSALMRFNDSQSLSPWPVSEAMADIVTTSLRIGAKTDGAMDITVGPLVNLWGFGPEQQPVQIPSQEQIDAMKAKTGLQHLTVINQSHQQYLQKDLPDLYVDLSTVGEGYAADHLARLMEQEGISRYLVSVGGALNSRGMNGEGLPWRVAIQKPTDKENAVQAVVDINGHGISTSGSYRNYYELDGKRLSHVIDPQTGRPIEHNLVSVTVIAPTALEADAWDTGLMVLGPEKAKEVVRREGLAVYMITKEGDSFKTWMSPQFKSFLVSEKN [P0AB85] only.
a: 6.34 h
